Each entry below carries its recorded viscosity.
- experiment: xn = mol fraction of the nth substance listed
- condition-info: 308.15 K; 100 kPa; Liquid; Cone and plate viscometry; x1 = 0.5
Please give a number only; it is taken to be in mPa·s.

[[record]]
compound = "CCCCCCn1cc[n+](C)c1C.O=[N+]([O-])c1cn[n-]c1 [1-hexyl-2,3-dimethylimidazolium 4-nitropyrazolide] + CCCCCCCCCCCCCC[P+](CCCCCC)(CCCCCC)CCCCCC.O=S(=O)([N-]S(=O)(=O)C(F)(F)F)C(F)(F)F"
readout_units = "mPa·s"
value_reported = 240


I would be grateful if you could share the reported viscosity for CCCCCCn1cc[n+](C)c1.O=[N+]([O-])c1cn[n-]c1 [1-hexyl-3-methylimidazolium 4-nitropyrazolide] + CCCCCCCCCCCCCC[P+](CCCCCC)(CCCCCC)CCCCCC.O=S(=O)([N-]S(=O)(=O)C(F)(F)F)C(F)(F)F .
195

And then CCCCCCCCCCCCCC[P+](CCCCCC)(CCCCCC)CCCCCC.N#Cc1ccc[n-]1 [trihexyl(tetradecyl)phosphonium 2-cyanopyrrolide] + CCCCCCn1cc[n+](C)c1C.O=S(=O)([N-]S(=O)(=O)C(F)(F)F)C(F)(F)F , what is it?
193

How about CCCCCCCC[P+](CC)(CC)CC.O=[N+]([O-])c1cn[n-]c1 [triethyloctylphosphonium 4-nitropyrazolide] + CCCCCCn1cc[n+](C)c1C.O=S(=O)([N-]S(=O)(=O)C(F)(F)F)C(F)(F)F ?
134
